Overview of recorded Kd for various compounds
biological target: inactive SHP2 catalytic domain Hillmut (K274E) (Homo sapiens, UniProt Q06124, C459S/K274E); construct: SHP2 K274E (Hillmut); 219-528 + C459S; His6 (N); assay: Fluorescence polarization titrations, SHP2 Hillmut; details: competitive FP titration vs CF-ppIRS1 100 nM, protein fixed; n = 3 technical replicates
Sequence (Q06124 219-528 K274E/C459S): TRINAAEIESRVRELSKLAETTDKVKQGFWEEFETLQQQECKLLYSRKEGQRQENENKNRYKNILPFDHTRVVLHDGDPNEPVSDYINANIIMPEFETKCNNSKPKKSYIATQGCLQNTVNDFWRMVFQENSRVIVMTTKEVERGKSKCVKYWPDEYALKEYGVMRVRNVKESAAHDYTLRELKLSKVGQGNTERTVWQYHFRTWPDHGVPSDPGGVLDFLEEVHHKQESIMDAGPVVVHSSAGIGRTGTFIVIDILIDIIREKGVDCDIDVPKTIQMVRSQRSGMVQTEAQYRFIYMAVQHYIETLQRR

{"smiles.notation": "CSCC[C@H](NC(=O)[C@H](Cc1ccc(OP(=O)(O)O)cc1)NC(=O)[C@H](CC(=O)O)NC(=O)[C@H](CO)NC(=O)[C@H](Cc1c[nH]cn1)NC(=O)[C@H](CC(C)C)NC(=O)[C@H](CC(C)C)NC(=O)[C@H](CCCNC(=N)N)NC(=O)[C@H](CO)NC(=O)[C@@H](N)CCCNC(=N)N)C(=O)N[C@@H](CC(N)=O)C(=O)N[C@@H](CCSC)C(=O)N[C@H](C(=O)N1CCC[C@H]1C(=O)N[C@@H](CCCNC(=N)N)C(=O)N[C@@H](CCCNC(=N)N)C(=O)O)[C@@H](C)OP(=O)(O)O", "Kd [µM]": 11}
{"smiles.notation": "CC[C@H](C)[C@H](NC(=O)[C@H](CC(N)=O)NC(=O)[C@@H](NC(=O)[C@H](Cc1ccc(OP(=O)(O)O)cc1)NC(=O)[C@H](CCC(=O)O)NC(=O)CNC(=O)[C@@H]1CCCN1C(=O)[C@H](CO)NC(=O)[C@H](CCCCN)NC(=O)[C@@H]1CCCN1C(=O)[C@@H](N)CCC(=O)O)C(C)C)C(=O)N[C@@H](CCC(=O)O)C(=O)N[C@@H](Cc1ccccc1)C(=O)O", "Kd [µM]": 14.8}
{"smiles.notation": "CC[C@H](C)[C@H](NC(=O)[C@H](CC(N)=O)NC(=O)[C@@H](NC(=O)[C@H](Cc1ccc(OP(=O)(O)O)cc1)NC(=O)[C@H](CCC(=O)O)NC(=O)CNC(=O)[C@@H]1CCCN1C(=O)[C@H](COP(=O)(O)O)NC(=O)[C@H](CCCCN)NC(=O)[C@@H]1CCCN1C(=O)[C@@H](N)CCC(=O)O)C(C)C)C(=O)N[C@@H](CCC(=O)O)C(=O)N[C@@H](Cc1ccccc1)C(=O)O", "Kd [µM]": 2.56}

Values were extracted from paper PMC9481563.
